- assay overview: Tetrazolium-based cytotoxicity assay in HEp-2 cells
- condition info: human, HEp-2 cells, cytotoxicity CC50, HEp-2 cells, tetrazolium-based assay
CC50 at 3 days values for the compounds below.
quantity: CC50 at 3 days

input smiles	measured
COc1ccc2c(=O)c(-c3cc(OC)c4c(c3OC)OCO4)coc2c1	> 100 µM
COc1c(O[C@@H]2O[C@H](CO[C@H]3O[C@H](C)[C@@H](O)[C@H](O)[C@@H]3O)[C@@H](O[C@@H]3O[C@H](CO[C@H]4O[C@H](C)[C@@H](O)[C@H](O)[C@@H]4O)[C@@H](O)[C@H](O)[C@H]3O)[C@H](O)[C@H]2O)cc2c(=O)c(-c3ccc4c(c3)OCO4)coc2c1OC	> 100 µM
CC(C)=CCOc1ccc(-c2coc3c4c(ccc3c2=O)OC(C)(C)C=C4)cc1	> 100 µM
CC1(C)C=Cc2c(ccc3c(=O)c(-c4ccc5c(c4)OCO5)coc23)O1	> 100 µM
CC1(C)C=Cc2c(ccc(C(=O)/C=C/c3ccc(O)cc3)c2O)O1	2 µM
COc1ccc2c(=O)c(-c3cc4c(cc3OC)OCO4)coc2c1	65 µM
COc1ccc2c(=O)c3c(oc2c1)COc1cc2c(cc1-3)OCO2	90 µM
COc1cc2c(cc1-c1coc3cc(O)ccc3c1=O)OCO2	> 100 µM

###

- System: RSV
- assay overview: RSV plaque reduction assay in HEp-2 cells
- condition info: CC50 HEp-2 / anti-RSV IC50
quantity: SI (CC50/IC50)

input smiles	measured target	relation symbol	measured
COc1cc2c(cc1-c1coc3cc(O)ccc3c1=O)OCO2	RSV	=	1.0
COc1ccc2c(c1)O[C@@H]1COc3c(cc(OC)c4c3OCO4)[C@]1(O)C2=O	RSV	=	3.8
COc1ccc2c(=O)c(-c3cc4c(cc3OC)OCO4)coc2c1	RSV	=	6.5
CC1(C)C=Cc2c(ccc(C(=O)/C=C/c3ccc(O)cc3)c2O)O1	RSV	<	2.5
COc1cc2c(cc1OC)[C@]1(O)C(=O)c3ccc4c(c3O[C@@H]1CO2)C=CC(C)(C)O4	RSV	=	15.6
CC1(C)C=Cc2c(ccc3c(=O)c(-c4ccc5c(c4)OCO5)coc23)O1	RSV	=	1.0
COc1ccc2c(=O)c(-c3cc(OC)c4c(c3OC)OCO4)coc2c1	RSV	=	1.0

###

CC50 values for the compounds below.
- assay overview: in vitro
- condition info: human, cytotoxicity CC50, HEp-2 cells, tetrazolium-based assay

compound	CC50
COc1cc2c(cc1OC)[C@@H]1C(=O)c3ccc4c(c3O[C@@H]1CO2)C=CC(C)(C)O4 [Compound 10, deguelin]	> 26.5 µM
COc1ccc2c(c1)O[C@@H]1COc3cc(OC)c(OC)cc3[C@]1(O)C2=O [Compound 8, 12a-hydroxymunduserone]	> 26.5 µM
COc1ccc2c(c1)O[C@@H]1COc3c(cc(OC)c4c3OCO4)[C@]1(O)C2=O [Compound 7, oblarotenoid D]	6.7 µM
COc1ccc2c(c1)O[C@@H]1COc3c(cc(OC)c4c3OCO4)[C@@H]1C2=O [Compound 1]	> 100 µM
COc1ccc2c(c1)O[C@@H]1COc3cc4c(cc3[C@]1(O)C2=O)OCO4 [Compound 6, oblarotenoid A]	> 26.5 µM
COc1ccc2c(c1)O[C@@H]1COc3cc4c(cc3[C@@H]1C2=O)OCO4 [Compound 5, oblarotenoid C]	> 100 µM
COc1cc2c(cc1OC)C(=O)[C@@]1(O)c3cc4c(cc3OC[C@H]1O2)OCO4 [Compound 2]	> 100 µM
